Test: Half life in ICR mouse at 10 mg/kg, po
Type: ADME, organism-based
Details: in vivo
measurementName: half-life (min)

In [3]: df
Out[3]:
                    compoundstructurestring  measurementname  reportedresult
0  CCc1cc(NC(=O)Nc2ccc(-c3cnc(Nc4cc(N5CCN(CC)CC5)nc(C)n4)s3)cc2)no1        half-life             108

----------
Experiment: AUC (0 to infinity) in ICR mouse at 10 mg/kg, po
Format: ADME, organism-based
Set-up: dose 10 mg/kg, time infinity, route oral
Settings: in vivo
measurementName: AUC(0-inf) (ng·h/mL)

In [3]: df
Out[3]:
                    compoundstructurestring  reportedresult
0  CCc1cc(NC(=O)Nc2ccc(-c3cnc(Nc4cc(N5CCN(CC)CC5)nc(C)n4)s3)cc2)no1             942

----------
Tested on: Receptor-type tyrosine-protein kinase FLT3 (Homo sapiens), P36888 [UNDEFINED MUTATION]
Conditions: MOLM-13
Description: Inhibition of FLT3 ITD heterozygous mutant in human MOLM-13 cells assessed as cell growth inhibition after 72 hrs by MTS assay
measurementName: GI50 (nM)

                    compoundstructurestring  reportedresult
0  Cc1nc(Nc2ncc(-c3ccc(NC(=O)Nc4ccccc4)cc3)s2)cc(N2CCC(N)CC2)n1              16
1  Cc1cc(NC(=O)Nc2ccc(-c3cnc(NC(=O)c4ccc(OCCN5CCOCC5)cc4)s3)cc2)no1             210
2  CCN1CCN(c2cc(Nc3ncc(-c4ccc(NC(=O)Nc5cc(C6CC6)on5)cc4)s3)nc(C)n2)CC1               2
3  CCN1CCN(c2cc(Nc3ncc(-c4ccc(NC(=O)c5ccccc5)cc4)s3)nc(C)n2)CC1              19
4  CCN1CCN(c2cc(Nc3ncc(-c4ccc(NC(=O)OCc5ccccc5)cc4)s3)nc(C)n2)CC1               3
5  CCN1CCN(c2cc(Nc3ncc(-c4ccc(NS(=O)(=O)c5ccccc5)cc4)s3)nc(C)n2)CC1             140

----------
Biological target: Receptor-type tyrosine-protein kinase FLT3 (Homo sapiens)
Sequence (P36888 whole entry): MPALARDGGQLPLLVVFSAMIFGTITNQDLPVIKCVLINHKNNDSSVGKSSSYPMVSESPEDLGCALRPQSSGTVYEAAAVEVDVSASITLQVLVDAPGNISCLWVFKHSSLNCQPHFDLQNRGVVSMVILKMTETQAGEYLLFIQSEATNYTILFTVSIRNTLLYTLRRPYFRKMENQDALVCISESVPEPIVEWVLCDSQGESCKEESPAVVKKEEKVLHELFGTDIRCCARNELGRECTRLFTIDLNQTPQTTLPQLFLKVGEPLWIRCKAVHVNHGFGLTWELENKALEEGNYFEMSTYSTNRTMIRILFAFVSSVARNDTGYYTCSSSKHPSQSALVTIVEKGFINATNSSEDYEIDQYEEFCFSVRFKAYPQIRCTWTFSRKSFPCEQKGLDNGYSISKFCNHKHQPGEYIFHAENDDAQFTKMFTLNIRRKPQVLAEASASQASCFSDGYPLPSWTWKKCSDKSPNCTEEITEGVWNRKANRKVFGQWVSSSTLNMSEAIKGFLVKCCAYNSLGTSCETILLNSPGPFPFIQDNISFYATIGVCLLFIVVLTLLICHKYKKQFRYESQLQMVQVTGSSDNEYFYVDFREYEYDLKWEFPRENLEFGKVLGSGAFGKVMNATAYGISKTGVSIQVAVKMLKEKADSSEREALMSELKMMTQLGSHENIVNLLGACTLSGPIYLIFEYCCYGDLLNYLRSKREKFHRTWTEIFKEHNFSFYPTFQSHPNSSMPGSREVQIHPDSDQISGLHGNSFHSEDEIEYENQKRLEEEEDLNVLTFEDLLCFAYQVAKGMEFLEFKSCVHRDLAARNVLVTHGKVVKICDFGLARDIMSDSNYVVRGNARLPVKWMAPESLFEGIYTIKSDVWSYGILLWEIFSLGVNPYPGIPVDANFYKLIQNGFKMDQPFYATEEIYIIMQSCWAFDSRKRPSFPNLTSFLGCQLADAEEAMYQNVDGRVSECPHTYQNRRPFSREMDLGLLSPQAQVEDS
Test: biochemical
Type: cell-based, Sf9
Description: Inhibition of wild type GST-tagged FLT3 kinase domain (Y567 to S993) (unknown origin) expressed in baculovirus infected insect Sf9 cells using Her2 peptide as substrate after 4 hrs by Kinase-Glo assay
pIC50: −log10 of the molar value.
measurementName: pIC50

In [3]: df
Out[3]:
                     compoundstructurestring                              testedtarget  reportedresult
 0  CCN1CCN(c2cc(Nc3ncc(-c4ccc(NS(=O)(=O)c5ccccc5)cc4)s3)nc(C)n2)CC1  Receptor-type tyrosine-protein kinase FLT3 (Homo sapiens)            6.28
 1  CCc1cc(NC(=O)Nc2ccc(-c3cnc(Nc4cc(N5CCN(CC)CC5)nc(C)n4)s3)cc2)no1  Receptor-type tyrosine-protein kinase FLT3 (Homo sapiens)            7.42
 2  CCN1CCN(c2cc(Nc3ncc(-c4ccc(NC(=O)Nc5cc(C6CC6)on5)cc4)s3)nc(C)n2)CC1  Receptor-type tyrosine-protein kinase FLT3 (Homo sapiens)            7.48
 3  CCN1CCN(c2cc(Nc3ncc(-c4ccc(NC(=O)Nc5ccc(Cl)cc5)cc4)s3)nc(C)n2)CC1  Receptor-type tyrosine-protein kinase FLT3 (Homo sapiens)            6.49
 4  CCc1cc(NC(=O)Nc2ccc(-c3cnc(Nc4cc(N5CCN(C)CC5)nc(C)n4)s3)cc2)no1  Receptor-type tyrosine-protein kinase FLT3 (Homo sapiens)            7.31
 5  CCN1CCN(c2cc(Nc3ncc(-c4ccc(NC(=O)c5ccccc5)cc4)s3)nc(C)n2)CC1  Receptor-type tyrosine-protein kinase FLT3 (Homo sapiens)            6.07
 6  CCCCc1cc(NC(=O)Nc2ccc(-c3cnc(Nc4cc(N5CCN(C)CC5)nc(C)n4)s3)cc2)no1  Receptor-type tyrosine-protein kinase FLT3 (Homo sapiens)            7.66
 7  CCN1CCN(c2cc(Nc3ncc(-c4ccc(NC(=O)OCc5ccccc5)cc4)s3)nc(C)n2)CC1  Receptor-type tyrosine-protein kinase FLT3 (Homo sapiens)            7.08
 8  Cc1cc(NC(=O)Nc2ccc(-c3cnc(NC(=O)c4ccc(OCCN5CCOCC5)cc4)s3)cc2)no1  Receptor-type tyrosine-protein kinase FLT3 (Homo sapiens)            6.24
 9  Cc1nc(Nc2ncc(-c3ccc(NC(=O)Nc4cc(C)on4)cc3)s2)cc(N2CCN(C)CC2)n1  Receptor-type tyrosine-protein kinase FLT3 (Homo sapiens)            8.00
10  Cc1nc(Nc2ncc(-c3ccc(NC(=O)Nc4ccccc4)cc3)s2)cc(N2CCC(N)CC2)n1  Receptor-type tyrosine-protein kinase FLT3 (Homo sapiens)            7.14
11  Cc1nc(Nc2ncc(-c3ccc(NC(=O)Nc4cccc(Cl)c4)cc3)s2)cc(N2CCNCC2)n1  Receptor-type tyrosine-protein kinase FLT3 (Homo sapiens)            7.70
12  Cc1nc(Nc2ncc(-c3ccc(NC(=O)Nc4ccccc4)cc3)s2)cc(N2CCN(C)CC2)n1  Receptor-type tyrosine-protein kinase FLT3 (Homo sapiens)            7.10

Data credit: ChEMBL document CHEMBL3593229
